Catalogue of compounds with associated pIC50
# target_of_assay: Monoacylglycerol lipase ABHD6 (Homo sapiens, UniProt Q9BV23)
# Sequence (Q9BV23 whole entry): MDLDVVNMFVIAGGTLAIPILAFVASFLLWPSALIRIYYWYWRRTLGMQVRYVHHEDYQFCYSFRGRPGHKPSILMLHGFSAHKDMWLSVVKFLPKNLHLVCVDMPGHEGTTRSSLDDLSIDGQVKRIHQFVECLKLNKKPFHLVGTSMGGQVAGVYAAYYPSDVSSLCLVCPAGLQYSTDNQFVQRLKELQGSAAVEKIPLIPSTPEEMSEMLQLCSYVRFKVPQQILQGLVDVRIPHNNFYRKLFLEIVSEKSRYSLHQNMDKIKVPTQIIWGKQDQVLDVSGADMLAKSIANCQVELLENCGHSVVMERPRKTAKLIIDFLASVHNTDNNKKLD
# measurement_protocol: Inhibition of recombinant human ABHD6 expressed in HEK293 cells by AmplifuTM red dye based fluorescence assay
# Assay type: cell-based
// pIC50: -log10(molar conc.)

> print(dat)
                               smiles.input  recorded.endpoint  result
1  O=C(N1C[C@@H](O)C=C[C@@H]1COCc1ccccc1)n1cc(-c2ccc(-c3ccccc3)cc2)nn1              pIC50    8.00
2  O=C(N1CC=C[C@@H](O)[C@@H]1COCc1ccccc1)n1cc(-c2ccc(-c3ccccc3)cc2)nn1              pIC50    6.10

// below: pIC50 requested for another compound
Answer with pIC50 of O=C(N1CCCC[C@@H]1COCc1ccccc1)n1cc(-c2ccc(-c3ccccc3)cc2)nn1 measured for Monoacylglycerol lipase ABHD6 (Homo sapiens, UniProt Q9BV23).
8.50

---

# target_of_assay: Diacylglycerol lipase-alpha (Mus musculus) (UniProt Q6WQJ1)
# Sequence (Q6WQJ1 whole entry): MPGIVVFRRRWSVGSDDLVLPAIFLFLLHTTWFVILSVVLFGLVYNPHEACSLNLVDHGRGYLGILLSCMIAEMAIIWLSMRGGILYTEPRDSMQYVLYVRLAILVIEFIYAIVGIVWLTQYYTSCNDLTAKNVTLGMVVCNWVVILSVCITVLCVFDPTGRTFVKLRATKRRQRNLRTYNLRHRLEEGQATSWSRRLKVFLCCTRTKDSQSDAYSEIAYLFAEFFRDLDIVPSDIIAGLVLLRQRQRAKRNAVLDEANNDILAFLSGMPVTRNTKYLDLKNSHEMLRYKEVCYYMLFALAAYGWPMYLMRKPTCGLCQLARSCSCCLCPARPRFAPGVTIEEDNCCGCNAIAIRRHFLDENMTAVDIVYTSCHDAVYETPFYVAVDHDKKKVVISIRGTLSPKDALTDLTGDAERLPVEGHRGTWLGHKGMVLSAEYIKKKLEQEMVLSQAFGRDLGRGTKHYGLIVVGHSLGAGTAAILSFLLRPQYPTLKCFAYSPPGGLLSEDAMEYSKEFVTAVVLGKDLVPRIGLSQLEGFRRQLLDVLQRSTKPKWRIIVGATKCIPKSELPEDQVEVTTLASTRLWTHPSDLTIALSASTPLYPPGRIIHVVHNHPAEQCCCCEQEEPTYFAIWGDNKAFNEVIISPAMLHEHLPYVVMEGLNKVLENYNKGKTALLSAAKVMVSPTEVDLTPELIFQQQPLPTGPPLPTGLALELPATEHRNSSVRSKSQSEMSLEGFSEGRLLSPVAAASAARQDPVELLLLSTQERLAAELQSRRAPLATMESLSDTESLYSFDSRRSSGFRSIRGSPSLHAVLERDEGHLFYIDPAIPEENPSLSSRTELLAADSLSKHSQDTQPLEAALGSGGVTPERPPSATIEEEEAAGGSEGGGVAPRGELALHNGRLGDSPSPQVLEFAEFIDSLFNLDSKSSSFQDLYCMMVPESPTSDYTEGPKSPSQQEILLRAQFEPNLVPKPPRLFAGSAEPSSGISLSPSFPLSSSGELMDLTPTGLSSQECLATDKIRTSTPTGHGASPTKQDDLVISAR
# measurement_protocol: Inhibition of MB064 labelling of DAGLalpha in mouse brain homogenates at 10 uM pretreated for 30 mins followed by MB064 addition and measured after 20 mins by activity based protein profiling assay relative to control
# Format: tissue-based
Catalogue of compounds with associated inhibition
# unit: % | format: bare number

Some solved cases for reference:
> print(dat)
                               smiles.input  result
1  O=C(N1CCCC[C@@H]1COCc1ccccc1)n1cc(-c2ccc(-c3ccccc3)cc2)nn1      96
2  O=C(N1CCC=C[C@@H]1COCc1ccccc1)n1cnc(-c2ccc(-c3ccccc3)cc2)n1       0
3  O=C(N1CCC=C[C@@H]1COCc1ccccc1)n1cc(-c2ccc(-c3ccccc3)cc2)nn1      94
4  O=C(N1C[C@H](O)C=C[C@@H]1COCc1ccccc1)n1cc(-c2ccc(-c3ccccc3)cc2)nn1      87
5  O=C(N1CCC=C[C@@H]1COCc1ccccc1)n1ccc(-c2ccc(Br)cc2)n1      -3
6  O=C(N1CCC=C[C@@H]1Cc1ccccc1)n1cc(-c2ccc(-c3ccccc3)cc2)nn1      99
7  O=C(N1CCC=C[C@@H]1COCc1ccccc1)n1cc(-c2ccc(Br)cc2)nn1      93
8  O=C(N1CCC=C[C@@H]1COCc1ccccc1)n1cc(-c2ccc(Oc3ccccc3)cc2)nn1      93
9  O=C(N1CCC=C[C@H]1COCc1ccccc1)n1cc(-c2ccc(-c3ccccc3)cc2)nn1      30

// below: inhibition requested for another compound
Report inhibition for O=C(N1C[C@@H](O)C=C[C@@H]1COCc1ccccc1)n1cc(-c2ccc(-c3ccccc3)cc2)nn1
85

---

# target_of_assay: Monoacylglycerol lipase ABHD6 (Homo sapiens)
# Sequence (Q9BV23 whole entry): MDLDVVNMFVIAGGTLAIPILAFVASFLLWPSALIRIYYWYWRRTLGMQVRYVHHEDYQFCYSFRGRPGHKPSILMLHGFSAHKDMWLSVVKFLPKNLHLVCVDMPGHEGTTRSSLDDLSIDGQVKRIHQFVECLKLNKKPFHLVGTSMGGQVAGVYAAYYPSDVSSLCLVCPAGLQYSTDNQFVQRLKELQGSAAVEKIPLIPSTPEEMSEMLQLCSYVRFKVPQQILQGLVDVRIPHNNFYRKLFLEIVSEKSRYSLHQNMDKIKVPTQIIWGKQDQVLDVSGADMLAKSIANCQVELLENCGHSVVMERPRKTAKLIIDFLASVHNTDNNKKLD
# measurement_protocol: Inhibition of recombinant human ABHD6 expressed in HEK293 cells by AmplifuTM red dye based fluorescence assay
recorded_endpoint: IC50 (nM)
# unit: nM | format: bare number

Some solved cases for reference:
> print(dat)
                               smiles.input  unit.info  result
1  O=C(N1CCC=C[C@@H]1COCc1ccccc1)n1cc(-c2ccccc2)nn1         nM     158
2  O=C(N1CCC=C[C@@H]1Cc1ccccc1)n1cc(-c2ccc(-c3ccccc3)cc2)nn1         nM    2.51
3  O=C(N1C[C@H](O)C=C[C@H]1COCc1ccccc1)n1cc(-c2ccc(-c3ccccc3)cc2)nn1         nM     316

// below: IC50 requested for another molecule
Report IC50 for O=C(N1CCC=C[C@@H]1COCc1ccccc1)n1cc(-c2ccc(-c3ccccc3)cc2)nn1
12.6

---

# target_of_assay: Diacylglycerol lipase-alpha (Homo sapiens, UniProt Q9Y4D2)
# Sequence (Q9Y4D2 whole entry): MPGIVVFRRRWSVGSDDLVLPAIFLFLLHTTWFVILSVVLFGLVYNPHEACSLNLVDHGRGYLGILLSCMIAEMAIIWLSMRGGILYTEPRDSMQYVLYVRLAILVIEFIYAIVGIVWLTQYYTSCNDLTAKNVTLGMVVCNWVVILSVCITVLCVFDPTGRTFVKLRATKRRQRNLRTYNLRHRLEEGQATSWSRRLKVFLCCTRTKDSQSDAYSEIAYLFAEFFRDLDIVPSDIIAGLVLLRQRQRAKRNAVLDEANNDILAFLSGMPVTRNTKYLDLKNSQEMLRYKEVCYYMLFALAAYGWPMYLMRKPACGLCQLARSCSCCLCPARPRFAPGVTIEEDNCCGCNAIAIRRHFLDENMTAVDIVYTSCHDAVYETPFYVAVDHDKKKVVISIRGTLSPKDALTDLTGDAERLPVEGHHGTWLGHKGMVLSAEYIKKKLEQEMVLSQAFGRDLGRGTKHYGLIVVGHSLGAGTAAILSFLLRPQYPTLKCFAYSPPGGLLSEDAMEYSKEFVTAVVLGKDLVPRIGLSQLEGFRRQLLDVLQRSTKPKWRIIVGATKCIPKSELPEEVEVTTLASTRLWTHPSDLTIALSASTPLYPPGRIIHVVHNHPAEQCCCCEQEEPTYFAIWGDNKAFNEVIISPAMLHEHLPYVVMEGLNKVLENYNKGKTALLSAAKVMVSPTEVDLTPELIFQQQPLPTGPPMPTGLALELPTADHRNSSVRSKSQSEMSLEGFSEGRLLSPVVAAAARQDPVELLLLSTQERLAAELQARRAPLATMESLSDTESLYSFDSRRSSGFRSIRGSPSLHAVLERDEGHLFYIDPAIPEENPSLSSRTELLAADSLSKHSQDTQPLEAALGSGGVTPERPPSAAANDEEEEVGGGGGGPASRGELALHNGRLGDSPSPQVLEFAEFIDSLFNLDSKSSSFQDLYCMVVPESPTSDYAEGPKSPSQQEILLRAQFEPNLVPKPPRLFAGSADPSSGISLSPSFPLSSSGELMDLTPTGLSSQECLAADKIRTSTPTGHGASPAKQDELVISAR
# measurement_protocol: Inhibition of recombinant human DAGLalpha expressed in HEK293 cells using PNP-butyrate as substrate pretreated for 20 to 30 mins followed by substrate addition measured every 60 secs for 20 mins by colorimetric method
Catalogue of molecules with associated log10 IC50
Please interpret these as log10 of IC50 where IC50 is in nM.

Some solved cases for reference:
> print(dat)
                               smiles.input  recorded.endpoint  result
1  O=C(N1CCC=C[C@H]1Cc1ccccc1)n1cc(-c2ccc(-c3ccccc3)cc2)nn1         log10 IC50    1.90
2  O=C(N1C[C@H](O)C=C[C@@H]1Cc1ccccc1)n1cc(-c2ccc(-c3ccccc3)cc2)nn1         log10 IC50    1.20
3  O=C(N1C[C@@H](O)C=C[C@@H]1COCc1ccccc1)n1cc(-c2ccc(-c3ccccc3)cc2)nn1         log10 IC50    1.50
4  O=C(N1CCC=C[C@@H]1COCc1ccccc1)n1cc(-c2ccc([N+](=O)[O-])cc2)nn1         log10 IC50    1.20
5  O=C(N1CCC=C[C@@H]1Cc1ccccc1)n1cc(-c2ccc(-c3ccccc3)cc2)nn1         log10 IC50   -0.10

Report log10 IC50 for O=C(N1CCC=C[C@@H]1COCc1ccccc1)n1cc(-c2ccc(Br)cc2)nn1
1.20

Report log10 IC50 for O=C(N1CCC=C[C@@H]1COCc1ccccc1)n1cc(-c2ccccc2)nn1
2.20

Report log10 IC50 for O=C(N1CCCC[C@@H]1COCc1ccccc1)n1cc(-c2ccc(-c3ccccc3)cc2)nn1
1.90

Report log10 IC50 for O=C(N1CCC=C[C@@H]1COCc1ccccc1)n1cc(-c2ccc(-c3ccccc3)cc2)nn1
1.40

Report log10 IC50 for O=C(N1CCC=C[C@@H]1COCc1ccccc1)n1cc(-c2ccc(Oc3ccccc3)cc2)nn1
1.40

Report log10 IC50 for O=C(N1CCC=C[C@H]1COCc1ccccc1)n1cc(-c2ccc(-c3ccccc3)cc2)nn1
3.10

Report log10 IC50 for O=C(N1C[C@H](O)C=C[C@@H]1COCc1ccccc1)n1cc(-c2ccc(-c3ccccc3)cc2)nn1
1.40

---

Catalogue of compounds with associated IC50
# target_of_assay: UniProt Q9BV23
# measurement_protocol: Inhibition of recombinant human ABHD6 expressed in HEK293 cells by AmplifuTM red dye based fluorescence assay
# unit: nM | format: bare number

Some solved cases for reference:
> print(dat)
                               smiles.input  recorded.endpoint  result
1  O=C(N1CCC=C[C@@H]1COCc1ccccc1)n1cc(-c2ccc(Br)cc2)nn1               IC50    15.8
2  O=C(N1CCC=C[C@H]1Cc1ccccc1)n1cc(-c2ccc(-c3ccccc3)cc2)nn1               IC50    25.1

Report IC50 for O=C(N1CCC=C[C@@H]1COCc1ccccc1)n1cc(-c2ccc([N+](=O)[O-])cc2)nn1
31.6

Report IC50 for O=C(N1C[C@H](O)C=C[C@@H]1COCc1ccccc1)n1cc(-c2ccc(-c3ccccc3)cc2)nn1
5.01

Report IC50 for O=C(N1C[C@H](O)C=C[C@@H]1Cc1ccccc1)n1cc(-c2ccc(-c3ccccc3)cc2)nn1
3.16

Report IC50 for O=C(N1CCC=C[C@@H]1COCc1ccccc1)n1cc(-c2ccc(Oc3ccccc3)cc2)nn1
6.31

Report IC50 for O=C(N1CC=C[C@@H](O)[C@H]1COCc1ccccc1)n1cc(-c2ccc(-c3ccccc3)cc2)nn1
251

Report IC50 for O=C(N1CCC=C[C@H]1COCc1ccccc1)n1cc(-c2ccc(-c3ccccc3)cc2)nn1
100

Each recorded value in this set is attributed to ChEMBL document CHEMBL4261499.
